# TGT: Muscarinic acetylcholine receptor M2 (Homo sapiens, UniProt P08172)
# Sequence (P08172 whole entry): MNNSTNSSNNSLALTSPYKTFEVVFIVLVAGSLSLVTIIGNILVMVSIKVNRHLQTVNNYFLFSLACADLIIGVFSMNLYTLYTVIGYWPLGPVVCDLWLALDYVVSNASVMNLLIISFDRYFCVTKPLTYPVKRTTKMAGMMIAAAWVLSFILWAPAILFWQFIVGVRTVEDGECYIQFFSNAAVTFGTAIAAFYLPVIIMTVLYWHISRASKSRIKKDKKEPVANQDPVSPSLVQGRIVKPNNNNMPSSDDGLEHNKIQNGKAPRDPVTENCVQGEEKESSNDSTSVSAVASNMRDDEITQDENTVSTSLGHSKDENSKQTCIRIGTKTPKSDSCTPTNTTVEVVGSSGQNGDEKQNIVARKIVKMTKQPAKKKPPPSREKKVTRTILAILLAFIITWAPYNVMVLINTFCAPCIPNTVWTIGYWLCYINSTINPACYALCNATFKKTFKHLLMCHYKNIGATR
# PROTOCOL SUMMARY: Antagonist activity at human muscarinic M2 receptor expressed in CHO-K1 cells coexpressing Gqi5 chimeric G-protein assessed as inhibition of acetylcholine-induced calcium mobilization
OBSERVED PROPERTY: IC50

CCN1CCN(c2ccc(NC(=O)c3ccccc3)cc2Cl)CC1 ... > 10 µM

Measured IC50 of CCN1CCN(c2ccc(NC(=O)c3ccc(C)cc3)cc2Cl)CC1 : > 10 µM

Measured IC50 of CCN1CCN(c2ccc(NC(=O)c3ccc(F)c(F)c3)cc2Cl)CC1 : > 10 µM

* * *

Recorded pIC50 by entry
# TGT: Muscarinic acetylcholine receptor M5 (Homo sapiens, UniProt P08912)
# Sequence (P08912 whole entry): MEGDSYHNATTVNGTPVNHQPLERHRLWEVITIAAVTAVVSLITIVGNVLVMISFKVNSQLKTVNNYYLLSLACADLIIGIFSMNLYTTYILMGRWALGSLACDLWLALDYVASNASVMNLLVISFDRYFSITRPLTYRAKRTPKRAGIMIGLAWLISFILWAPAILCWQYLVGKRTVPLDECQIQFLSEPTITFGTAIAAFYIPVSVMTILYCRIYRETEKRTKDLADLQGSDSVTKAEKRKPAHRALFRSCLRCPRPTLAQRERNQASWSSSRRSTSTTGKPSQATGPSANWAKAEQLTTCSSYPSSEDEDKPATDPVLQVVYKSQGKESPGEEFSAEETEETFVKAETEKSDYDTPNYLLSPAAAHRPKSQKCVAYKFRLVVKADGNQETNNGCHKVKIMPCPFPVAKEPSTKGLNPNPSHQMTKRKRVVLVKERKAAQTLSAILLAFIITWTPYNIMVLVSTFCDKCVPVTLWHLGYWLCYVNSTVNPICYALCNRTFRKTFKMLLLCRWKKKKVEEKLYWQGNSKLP
# PROTOCOL SUMMARY: Antagonist activity at human muscarinic M5 receptor expressed in CHO-K1 cells assessed as inhibition of acetylcholine-induced calcium mobilization
Answer as the number alone; pIC50 is minus log10 of concentration in mol/L.

CCN1CCN(c2ccc(NC(=O)c3cc(C(F)(F)F)ccc3C(F)(F)F)cc2Cl)CC1 ... 5.39
CCN1CCN(c2ccc(NC(=O)c3c(F)c(F)c(F)c(F)c3F)cc2Cl)CC1 ... 6.08
CCN1CCN(c2ccc(NC(=O)c3cccc(C)c3)cc2Cl)CC1 ... 5.46
CCN1CCN(c2ccc(NC(=O)c3ccccc3Cl)cc2Cl)CC1 ... 5.64
CCN1CCN(c2ccc(NC(=O)c3ccc(C)cc3)cc2Cl)CC1 ... 5.16

Measured pIC50 of CCN1CCN(c2ccc(NC(=O)c3ccccc3OC)cc2Cl)CC1 : 5.89

Measured pIC50 of CCN1CCN(c2ccc(NC(=O)c3cccc(C(F)(F)F)c3)cc2Cl)CC1 : 5.39

Just for reference, ChEMBL document CHEMBL1156303 is where these values come from.
